Tested target: human PD-1 (Jurkat-PD-1 cells) / PE-labeled human PD-L1-Ig (Homo sapiens, UniProt Q15116)
Construct: expressed in transfected cells; host or cells: Jurkat cell line over-expressing human PD-1
Sequence (Q15116 25-288): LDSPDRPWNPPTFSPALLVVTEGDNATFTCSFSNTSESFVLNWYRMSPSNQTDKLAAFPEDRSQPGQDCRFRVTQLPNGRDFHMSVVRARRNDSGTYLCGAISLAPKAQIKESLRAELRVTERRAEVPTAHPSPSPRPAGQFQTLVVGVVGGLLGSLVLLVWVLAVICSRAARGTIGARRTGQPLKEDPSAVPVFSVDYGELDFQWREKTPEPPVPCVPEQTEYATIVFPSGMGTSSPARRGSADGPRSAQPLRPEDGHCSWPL
Experiment notes: Jurkat-PD-1 Cell Binding High-Content Screening Assay (CBA); Jurkat hPD1-PDL1 assay
Condition context: Jurkat cell line over-expressing human PD-1; PE-labeled PD-L1-Ig 20 nM final; compound incubated 2 hours at 37° C.; read-out: Jurkat HPD1-PDL1 IC50
From the text: The ability of the compounds of formula (I) to bind to PD-1 was investigated using a Jurkat-PD-1 Cell Binding High-Content Screening Assay. Jurkat-PD-1 Cell Binding High-Content Screening Assay (CBA) Phycoerythrin (PE) was covalently linked to the Ig epitope tag of human PD-L1-Ig and fluorescently-labeled PD-L1-Ig was used for binding studies with a Jurkat cell line over-expressing human PD-1 (Jurkat-PD-1). […]
Positions of bridges follow the written chain, without caps; N, C: chain ends. Non-standard residues stand in square brackets, D forms with d. Residues, ends and D or L forms follow the SMILES beside them. Phe(4-CH2NH2) = NCc1ccc(C[C@H](N)C(=O)O)cc1; Bip = N[C@@H](Cc1ccc(-c2ccccc2)cc1)C(=O)O; NMeF = CN[C@@H](Cc1ccccc1)C(=O)O; Cit = NC(=O)NCCC[C@H](N)C(=O)O; Ala(CN) = N#CC[C@H](N)C(=O)O; NMeA = CN[C@@H](C)C(=O)O; Dab = NCC[C@H](N)C(=O)O; Dap = NC[C@H](N)C(=O)O; Sar = CNCC(=O)O
Property measured: IC50 (µM)
Quick reminder: number only, in µM, skip the unit.

Solved cases (3 shown):
CC(C)C[C@@H]1NC(=O)[C@H](Cc2c[nH]c3ccccc23)NC(=O)[C@H](CC#N)NC(=O)[C@H](Cc2ccc(O)cc2)NC(=O)[C@H](Cc2ccccc2)NC(=O)CSC[C@@H](C(=O)N[C@@H](C)C(N)=O)NC(=O)[C@H](CO)NC(=O)[C@H](C(C)C)NC(=O)[C@H](CC(C)C)NC(=O)[C@H](CC(N)=O)NC(=O)[C@H]2CCCN2C(=O)[C@H](C)N(C)C(=O)[C@H](C(C)C)NC(=O)[C@H](Cc2ccc(-c3ccccc3)cc2)NC1=O [Example 1429] ({CH2CO}-FY[Ala(CN)]WL[Bip]V[NMeA][dP]NLVSCA-NH2; thioether N-14) | 0.01
CC(C)C[C@@H]1NC(=O)[C@H](CCCNC(=N)N)NC(=O)[C@H](Cc2ccccc2)N(C)C(=O)[C@H](CCCNC(N)=O)NC(=O)[C@H](CCCNC(=N)N)NC(=O)[C@H](Cc2ccc(-c3ccccc3)cc2)NC(=O)[C@H](C(C)C)NC(=O)[C@H](Cc2c[nH]c3ccccc23)NC(=O)[C@H](CC(=O)O)NC(=O)[C@H](Cc2ccc(O)cc2)NC(=O)[C@H](Cc2ccccc2)NC(=O)CSC[C@@H](C(=O)NCC(N)=O)NC(=O)[C@H](CO)NC(=O)[C@H](C(C)C)NC1=O [Example 1276] ({CH2CO}-FYDWV[Bip]R[Cit][NMeF]RLVSCG-NH2; thioether N-14) | 0.84
CC(C)C[C@@H]1NC(=O)[C@H](Cc2c[nH]c3ccccc23)NC(=O)[C@H](CC(=O)O)NC(=O)[C@H](Cc2ccc(CN)cc2)NC(=O)[C@H](Cc2ccccc2)NC(=O)CSC[C@@H](C(=O)N[C@@H](C)C(N)=O)NC(=O)[C@H](CO)NC(=O)[C@H](C(C)C)NC(=O)[C@H](CC(C)C)NC(=O)[C@H](CC(N)=O)NC(=O)CN(C)C(=O)[C@H](C)N(C)C(=O)[C@H](C(C)C)NC(=O)[C@H](Cc2ccc(-c3ccccc3)cc2)NC1=O [Example 1101] ({CH2CO}-F[Phe(4-CH2NH2)]DWL[Bip]V[NMeA][Sar]NLVSCA-NH2; thioether N-14) | 0.3

Moving on to another compound below.
Exercise: Given CC(C)C[C@@H]1NC(=O)[C@H](Cc2c[nH]c3ccccc23)NC(=O)[C@H](CC(=O)O)NC(=O)[C@H](Cc2ccc(O)cc2)NC(=O)[C@H](Cc2ccccc2)NC(=O)CSC[C@@H](C(=O)NCC(N)=O)NC(=O)[C@H](CO)NC(=O)[C@H](C(C)C)NC(=O)[C@H](CC(C)C)NC(=O)[C@H](CCN)NC(=O)[C@H]2CCCN2C(=O)[C@H](CN)NC(=O)[C@H](C(C)C)NC(=O)[C@H](Cc2ccc(-c3ccccc3)cc2)NC1=O [Example 1410] ({CH2CO}-FYDWL[Bip]V[Dap][dP][Dab]LVSCG-NH2; thioether N-14) , state its recorded IC50.
Solution: 0.14

###

Tested target: human PD-1 (Jurkat-PD-1 cells) / PE-labeled human PD-L1-Ig (Homo sapiens, UniProt Q15116)
Construct: expressed in transfected cells; host or cells: Jurkat cell line over-expressing human PD-1
Experiment notes: Jurkat-PD-1 Cell Binding High-Content Screening Assay (CBA); Jurkat hPD1-PDL1 assay
Condition context: Jurkat cell line over-expressing human PD-1; PE-labeled PD-L1-Ig 20 nM final; compound incubated 2 hours at 37° C.; read-out: Jurkat HPD1-PDL1 IC50
Positions of bridges follow the written chain, without caps; N, C: chain ends. Non-standard residues stand in square brackets, D forms with d. Residues, ends and D or L forms follow the SMILES beside them. Phe(4-COOH) = N[C@@H](Cc1ccc(C(=O)O)cc1)C(=O)O; Bip = N[C@@H](Cc1ccc(-c2ccccc2)cc1)C(=O)O; NMeA = CN[C@@H](C)C(=O)O; Dap = NC[C@H](N)C(=O)O
Property measured: IC50 (nM)
Quick reminder: number only, in nM, skip the unit.

Exercise: Given CC(C)C[C@@H]1NC(=O)[C@H](Cc2c[nH]c3ccccc23)NC(=O)[C@H](CC(=O)O)NC(=O)[C@H](Cc2ccc(C(=O)O)cc2)NC(=O)[C@H](CN)NC(=O)CSC[C@@H](C(=O)N[C@@H](C)C(N)=O)NC(=O)[C@H](CO)NC(=O)[C@H](C(C)C)NC(=O)[C@H](CC(C)C)NC(=O)[C@H](CC(N)=O)NC(=O)[C@H]2CCCN2C(=O)[C@H](C)N(C)C(=O)[C@H](C(C)C)NC(=O)[C@H](Cc2ccc(-c3ccccc3)cc2)NC1=O [Example 1390] ({CH2CO}-[Dap][Phe(4-COOH)]DWL[Bip]V[NMeA][dP]NLVSCA-NH2; thioether N-14) , state its recorded IC50.
Solution: 20

###

Tested target: human PD-1 (Jurkat-PD-1 cells) / PE-labeled human PD-L1-Ig (Homo sapiens, UniProt Q15116)
Construct: expressed in transfected cells; host or cells: Jurkat cell line over-expressing human PD-1
Experiment notes: Jurkat-PD-1 Cell Binding High-Content Screening Assay (CBA); Jurkat hPD1-PDL1 assay
Condition context: Jurkat cell line over-expressing human PD-1; PE-labeled PD-L1-Ig 20 nM final; compound incubated 2 hours at 37° C.; read-out: Jurkat HPD1-PDL1 IC50
Positions of bridges follow the written chain, without caps; N, C: chain ends. Non-standard residues stand in square brackets, D forms with d. Residues, ends and D or L forms follow the SMILES beside them. Bip = N[C@@H](Cc1ccc(-c2ccccc2)cc1)C(=O)O; NMeF = CN[C@@H](Cc1ccccc1)C(=O)O; NMeA = CN[C@@H](C)C(=O)O
Property measured: IC50 (nM)
Quick reminder: number only, in nM, skip the unit.

CC(C)C[C@@H]1NC(=O)[C@H](CCCNC(=N)N)NC(=O)[C@H](Cc2ccccc2)N(C)C(=O)[C@H](C)N(C)C(=O)[C@H](CCCNC(=N)N)NC(=O)[C@H](Cc2ccc(-c3ccccc3)cc2)NC(=O)[C@H](C(C)C)NC(=O)[C@H](Cc2c[nH]c3ccccc23)NC(=O)[C@H](CC(=O)O)NC(=O)[C@H](Cc2ccc(O)cc2)NC(=O)[C@H](CO)NC(=O)CSC[C@@H](C(=O)NCC(N)=O)NC(=O)[C@H](CO)NC(=O)[C@H](C(C)C)NC1=O [Example 1062] ({CH2CO}-SYDWV[Bip]R[NMeA][NMeF]RLVSCG-NH2; thioether N-14) | 160

Moving on to another compound below.
Exercise: Given CC(C)C[C@@H]1NC(=O)[C@H](CCCNC(=N)N)NC(=O)[C@H](Cc2ccccc2)N(C)C(=O)[C@H](C)N(C)C(=O)[C@H](CCCNC(=N)N)NC(=O)[C@H](Cc2ccc(-c3ccccc3)cc2)NC(=O)[C@H](C(C)C)NC(=O)[C@H](Cc2c[nH]c3ccccc23)NC(=O)[C@H](CC(=O)O)NC(=O)[C@H](Cc2ccc(O)cc2)NC(=O)[C@H](CCCCN)NC(=O)CSC[C@@H](C(=O)NCC(N)=O)NC(=O)[C@H](CO)NC(=O)[C@H](C(C)C)NC1=O [Example 1211] ({CH2CO}-KYDWV[Bip]R[NMeA][NMeF]RLVSCG-NH2; thioether N-14) , state its recorded IC50.
Solution: 650
